System: Escherichia coli TOP10;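 note: peptides expressed intracellularly from a pBAD plasmid library in pooled LB shake-flask culture, induced with 0.3% L-arabinose, DNA abundance read by NGS, three biological replicates, DESeq2 with apeglm shrinkage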
Test Method Notes: shrunken log2 fold change of peptide-encoding DNA abundance (4.5 h post-induction vs induction); higher = less antimicrobial activity (less host growth inhibition)
Condition Info: time post-induction: 4.5 h; library: site-saturation at positions 5, 18, 19, 20
Label Y when shrunken log2 fold change >= -0.07; otherwise N.

RRIRTRPPRLPRPRPRPSHGPRP
Y
RRIRDRPPRLPRPRPRPTKWPRP
Y
RRIRTRPPRLPRPRPRPFYQPRP
N

Tell me whether shrunken log2 fold change is at least -0.07 here: RRIRHRPPRLPRPRPRPAAIPRP
Y

Tell me whether shrunken log2 fold change is at least -0.07 here: RRIRNRPPRLPRPRPRPSTRPRP
Y

Tell me whether shrunken log2 fold change is at least -0.07 here: RRIRNRPPRLPRPRPRPVFNPRP
N

Tell me whether shrunken log2 fold change is at least -0.07 here: RRIRERPPRLPRPRPRPNHIPRP
N

Tell me whether shrunken log2 fold change is at least -0.07 here: RRIRERPPRLPRPRPRPFCHPRP
Y

Tell me whether shrunken log2 fold change is at least -0.07 here: RRIRSRPPRLPRPRPRPWAKPRP
Y
